System: Fibroblast
Test: Multiplex assay against human fibroblast
Assay type: toxicity, cell-based
Details: 24 h, 10 µM, compound concentration 10 uM, replicate 2
# note: boundary value 9% maps to rule not met; Population Mitochondria Different-Phenotype (%) below it maps to rule met

Could you please tell me whether Population Mitochondria Different-Phenotype (%) recorded for CCn1c(-c2nc3cc(C(=O)N4CCCC(N)C4)ccc3n2C)cc2ccccc21.Cl (centres undefined) is less than 9%? rule not met

State whether 9% exceeds Population Mitochondria Different-Phenotype (%) recorded for COc1cc2nc(N3CCN(C(=O)COc4c(OC)cccc4C(C)C)CC3)nc(N)c2cc1OC.Cl.Cl . rule met

Item O=C(Nc1cc(-c2ccccc2)nn1-c1ccccc1F)c1ccc([N+](=O)[O-])cc1 : Population Mitochondria Different-Phenotype (%) beneath 9%, strictly? rule met

Report whether reported Population Mitochondria Different-Phenotype (%) is lower than 9% (strictly) for CC(C)C[C@H](CO)Nc1nc(S[C@@H](C)c2ccccc2)nc2nc(N)sc12 [AZD-8797] rule not met

Strictly below 9%: is that where Population Mitochondria Different-Phenotype (%) of Cc1cc(NC(=O)NCCN2CCC(O)(Cc3ccccc3)CC2)c2ccccc2n1 [PALOSURAN] sits? rule met

Population Mitochondria Different-Phenotype (%) strictly < 9% for this compound? COC(c1ccccc1)(c1ccccc1)[C@H](Oc1nc(C)cc(C)n1)C(=O)O [AMBRISENTAN] rule not met
